Study system: human phosphodiesterase 5 (PDE-5) (Homo sapiens, UniProt O76074)
pIC50: −log10 of the molar value.
pIC50 reference
Assay metric: pIC50

> print(dat)
                                    molecule  assay.metric  reading
 1  CN1CCN(c2nc(-c3nn(Cc4ccccc4F)c4ncccc34)nc3c2C(C)(C)C(=O)N3)CC1         pIC50     7.10
 2  CC(=O)NCCNc1nc(-c2nn(Cc3ccccc3F)c3ncccc23)nc2c1C(C)(C)C(=O)N2         pIC50     7.07
 3  CC1(C)C(=O)Nc2nc(-c3nn(Cc4ccccc4F)c4ncccc34)nc(NCc3ccncc3)c21         pIC50     8.38
 4  CC(C)CCNc1nc(-c2nn(Cc3ccccc3F)c3ncccc23)nc2c1C(C)(C)C(=O)N2         pIC50     6.64
 5  COCCCNc1nc(-c2nn(Cc3ccccc3F)c3ncccc23)nc2c1C(C)(C)C(=O)N2         pIC50     6.96
 6  CC1(C)C(=O)Nc2nc(-c3nn(Cc4ccccc4F)c4ncc(F)cc34)nc(NCC(F)F)c21         pIC50     6.96
 7  CC1(C)C(=O)Nc2nc(-c3nn(Cc4cccc(F)c4F)c4ncc(F)cc34)nc(O)c21         pIC50     7.08
 8  CC1(C)C(=O)Nc2nc(-c3nn(Cc4ccccc4F)c4ncc(F)cc34)nc(NCCC(F)(F)F)c21         pIC50     6.89
 9  CC1(C)C(=O)Nc2nc(-c3nn(Cc4ccccc4F)c4ncccc34)nc(N3CCOCC3)c21         pIC50     6.96
10  CC1(C)C(=O)Nc2nc(-c3nn(Cc4ccccc4F)c4ncccc34)nc(NCc3ccccc3F)c21         pIC50     6.92
11  CC1(C)C(=O)Nc2nc(-c3nn(Cc4ccccc4F)c4ncccc34)nc(NCc3ccccn3)c21         pIC50     6.89
12  CC1(C)C(=O)Nc2nc(-c3nn(Cc4ccccc4F)c4ncc(F)cc34)nc(NCC3CC3(F)F)c21 (stereo not shown)         pIC50     7.20
13  CC1(C)C(=O)Nc2nc(-c3nn(Cc4ccccc4F)c4ncccc34)nc(Nc3ccccc3)c21         pIC50     6.68
14  CC1(C)C(=O)Nc2nc(-n3nc(Cc4ccccc4F)c4ccccc43)nc(NCCC(F)(F)F)c21         pIC50     6.96
15  CC1(C)C(=O)Nc2nc(-c3nn(Cc4ccccc4F)c4c3CCC4)nc(NCC(F)(F)F)c21         pIC50     6.55
16  CC1(C)C(=O)Nc2nc(-c3nn(Cc4ccccc4F)c4ncccc34)nc(O)c21         pIC50     7.30
17  CC1(C)C(=O)Nc2nc(-c3nn(Cc4ccccc4F)c4ncccc34)nc(N3CC(N4CCCC4)C3)c21         pIC50     6.01
18  CCOC(=O)C1(C)C(=O)Nc2nc(-c3nn(Cc4ccccc4F)c4ncccc34)nc(O)c21 (stereo not shown)         pIC50     6.06
19  CC1(C)C(=O)Nc2nc(-c3nn(Cc4ccccc4F)c4ncccc34)nc(N3CCC(N)C3)c21 (racemic)         pIC50     7.92
20  CC1(C)C(=O)Nc2nc(-n3nc(Cc4ccccc4F)c4ccccc43)nc(O)c21         pIC50     6.24
21  CC1(C)C(=O)Nc2nc(-c3nn(Cc4ccccc4F)c4ncccc34)nc(N[C@@H]3CCCNC3=O)c21         pIC50     6.54
22  CC1(C)C(=O)Nc2nc(-n3nc(Cc4ccccc4F)c4cc(F)ccc43)nc(OCCC(F)(F)F)c21         pIC50     6.26
23  CC1(C)C(=O)Nc2nc(-c3nn(Cc4ccccc4F)c4ncccc34)nc(N3CC(C(F)(F)F)CCC3=O)c21 (stereo not shown)         pIC50     6.22
24  CC1(C)C(=O)Nc2nc(-c3nn(Cc4ccccc4F)c4ncc(F)cc34)nc(NCC3(O)CC3)c21         pIC50     8.40
25  CC1(C)C(=O)Nc2nc(-c3nn(Cc4ccccc4F)c4ncccc34)nc(NCCn3ccnn3)c21         pIC50     7.08
26  CC1(C)C(=O)Nc2nc(-c3nn(Cc4ccccc4F)c4ncc(F)cc34)nc(N3CC(F)C3)c21         pIC50     6.40
27  CC1(C)C(=O)Nc2nc(-c3nn(Cc4ccccc4F)c4ncccc34)nc(Nc3ccncc3)c21         pIC50     7.34
28  CC1(C)C(=O)Nc2nc(-c3nn(Cc4ncccc4F)c4ncc(F)cc34)nc(N3CC(F)C3)c21         pIC50     6.37
29  CC1(C)C(=O)Nc2nc(-c3nn(Cc4ccccc4F)c4ncccc34)nc(Oc3cn[nH]c3)c21         pIC50     8.40
30  CC(O)c1ccn(-c2nc(-c3nn(Cc4ccccc4F)c4ncccc34)nc3c2C(C)(C)C(=O)N3)n1 (stereo not shown)         pIC50     6.96
31  CCN(CCOC)c1nc(-c2nn(Cc3ccccc3F)c3ncccc23)nc2c1C(C)(C)C(=O)N2         pIC50     7.00
